- target desc: X-box-binding protein 1 (Homo sapiens)
- assay comment: ATG_Xbp1_CIS: Attagene CIS-FACTORIAL HepG2 Assay for human X-box Binding Protein 1 (XBP1) (AID 2282972)
- assay setup: HepG2 XBP1 cis-element reporter, Attagene multiplex; actives raise or lower the signal
Calls of active or inactive are those of the source. The calls were made as follows: active = hit-call score of the fitted dose curve at least 0.9, where 1 is the maximum; inactive = score below 0.9.
Select the matching outcome among yes (1) = active, no (0) = inactive

Recorded test outcome, item O=C1NC2NC(=O)NC2N1 (stereo unspecified)
no (0)

Recorded test outcome, item "O=C(O)CNc1ccccc1"
no (0)

Recorded test outcome, item COC(=O)c1ccc(C)cc1C1=NC(C)(C(C)C)C(=O)N1 (stereo unspecified) (tested in a mixture with another compound)
no (0)

Recorded test outcome, item "ON=C1CCCCC1"
no (0)

Recorded test outcome, item "CN(C)C(=O)Nc1ccc(Oc2ccc(Cl)cc2)cc1"
no (0)

Recorded test outcome, item "COc1cc([C@@H]2c3cc4c(cc3[C@@H](O[C@@H]3O[C@@H]5CO[C@@H](C)O[C@H]5[C@H](O)[C@H]3O)[C@H]3COC(=O)[C@H]23)OCO4)cc(OC)c1O"
no (0)

Recorded test outcome, item "C=C(C)C(=O)OCCOCCOCCOC(=O)C(=C)C"
no (0)

Recorded test outcome, item CC(C)=CCCC(C)CCOC=O (stereo unspecified)
no (0)

Recorded test outcome, item "COCCOCCOCCO"
no (0)

Recorded test outcome, item "OCc1cccc(Oc2ccccc2)c1"
no (0)

Recorded test outcome, item "CC1(C)C2=CCCC(C)(C)[C@]23CC[C@H]1C3"
no (0)

Recorded test outcome, item "COc1ccccc1N=Nc1c(S(=O)(=O)O)cc2cc(S(=O)(=O)O)cc(NC(C)=O)c2c1O"
no (0)

Recorded test outcome, item CCCC(C)C(O)CC (stereo unspecified)
no (0)

Recorded test outcome, item "c1ccc(Oc2ccccc2)cc1"
no (0)

Recorded test outcome, item "Cc1cccc(Nc2ccccc2)c1"
yes (1)

Recorded test outcome, item "CCO/C=C1\N=C(c2ccccc2)OC1=O"
no (0)

Recorded test outcome, item "CC1=C(Br)C(=O)C(Br)=C/C1=C(/c1ccccc1S(=O)(=O)O)c1cc(Br)c(O)c(Br)c1C"
no (0)

Recorded test outcome, item CC(CN=Cc1ccccc1O)N=Cc1ccccc1O (stereo unspecified)
no (0)

Recorded test outcome, item "CCCC[O][Al]([O]CCCC)[O]CCCC"
no (0)

Recorded test outcome, item "BrCc1cccc(Oc2ccccc2)c1"
no (0)

Recorded test outcome, item "CCCC(C)=O"
no (0)

Recorded test outcome, item "C=C(CC(=O)O)C(=O)O"
no (0)

Recorded test outcome, item CCCCC(CC)COC(=O)c1ccc(O)cc1 (stereo unspecified)
no (0)

Recorded test outcome, item "CCOC(=O)CCc1ccccc1"
no (0)

Recorded test outcome, item "CC(C)(C)OC(=O)c1ccc(O)cc1"
yes (1)

Recorded test outcome, item CCCC1O[C@@H]2C[C@H]3[C@@H]4CCC5=CC(=O)C=C[C@]5(C)[C@H]4[C@@H](O)C[C@]3(C)[C@]2(C(=O)CO)O1 (stereo partly specified)
no (0)

* * *

- assay comment: ATG_AP_1_CIS: Attagene CIS-FACTORIAL HepG2 Assay for human Activator Protein 1 (AP-1) (AID 2282931)
- assay setup: HepG2 Attagene cis-factorial AP-1 reporter mRNA; actives raise or lower the signal
The source made the active and inactive calls. How the source made its calls: active means hit-call score of the fitted dose curve at least 0.9, where 1 is the maximum; inactive means score below 0.9.
Select the matching outcome among label 1 = active, label 0 = inactive

Recorded test outcome, item "Cc1ccc(N)c(S(=O)(=O)O)c1"
label 0

Recorded test outcome, item C=C(C)C1CC=C(C)C(=O)C1 (stereo not drawn)
label 0

Recorded test outcome, item "CCC1CCCCC1"
label 0

Recorded test outcome, item "CC1(C)COCN1"
label 0

Recorded test outcome, item "CC1=C(Br)C(=O)C(Br)=C/C1=C(/c1ccccc1S(=O)(=O)O)c1cc(Br)c(O)c(Br)c1C"
label 0

Recorded test outcome, item "[O-]n1ccccc1=S.[O-]n1ccccc1=S.[Zn+2]"
label 0

Recorded test outcome, item CCCCC(CC)C(=O)OC(C)C (stereo not drawn)
label 0

Recorded test outcome, item "OCCc1ccccc1"
label 0

Recorded test outcome, item "Cc1c(C2(c3cc(Br)c(O)c(Br)c3C)OS(=O)(=O)c3ccccc32)cc(Br)c(O)c1Br"
label 0

Recorded test outcome, item "COC(=O)Nc1ccc(Cl)c(Cl)c1"
label 1

Recorded test outcome, item "Cc1cc(CCC(=O)OCCOCCOCCOC(=O)CCc2cc(C)c(O)c(C(C)(C)C)c2)cc(C(C)(C)C)c1O"
label 0

Recorded test outcome, item "CS(=O)(=O)c1ccc(Cl)cc1"
label 0

Recorded test outcome, item "CCCCCCCCCCCCN1CCCCCC1=O"
label 1

Recorded test outcome, item "CCC1(c2ccccc2)C(=O)NCNC1=O"
label 0

Recorded test outcome, item "BrCc1cccc(Oc2ccccc2)c1"
label 0

Recorded test outcome, item CC(C)CC(C)CC(O)CC(C)C (stereo not drawn)
label 0

Recorded test outcome, item "CCN(CCN)c1cccc(C)c1"
label 0

Recorded test outcome, item "[Cl][Au]([Cl])[Cl]"
label 1

Recorded test outcome, item "CN(C)CCOc1ccc(/C(=C(/CCCl)c2ccccc2)c2ccccc2)cc1"
label 0

Recorded test outcome, item "Nc1ccc(N)c2c1C(=O)c1ccccc1C2=O"
label 0

Recorded test outcome, item CC(=O)O[C@@H]1CC2CCC1(C)C2(C)C (stereo partly drawn)
label 0

Recorded test outcome, item CC(Oc1cc(Cl)ccc1Cl)C(=O)O (stereo not drawn)
label 0

Recorded test outcome, item CCCCCCCCCCCC(=O)OCC(O)CO (stereo not drawn)
label 1

Recorded test outcome, item "COc1ccc(N)c([N+](=O)[O-])c1"
label 0

Recorded test outcome, item "CCCCCC(C=O)=Cc1ccccc1"
label 0

Recorded test outcome, item COC(=O)c1ccc(C)cc1C1=NC(C)(C(C)C)C(=O)N1 (stereo not drawn) (tested in a mixture with another compound)
label 0

Recorded test outcome, item "COc1cc(Cl)c(OC)cc1N"
label 0

Recorded test outcome, item "CCCC(C)=O"
label 0

* * *

- assay comment: BSK_4H_Eotaxin3: BioMAP Diversity Plus: 4H Assay for Eotaxin 3 Biomarker Activity (AID 2283000);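 as to outcome: CCL26 protein level quantified by ELISA in parallel with SRB cytotoxicity check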
- assay setup: primary human endothelial cells (HUVEC); actives raise or lower the signal
The source made the active and inactive calls. The calls were made as follows: active = hit-call score of the fitted dose curve at least 0.9, where 1 is the maximum; inactive = score below 0.9.
Select the matching outcome among yes (1) (active), no (0) (inactive)

Recorded test outcome, item "C=C(C)[C@H]1CC=C(C)C(=O)C1"
no (0)

Recorded test outcome, item "O=C1OC2(c3ccccc31)c1ccc(O)c(Br)c1Oc1c2ccc(O)c1Br"
yes (1)

Recorded test outcome, item C1=CC2C3C=CC(C3)C2C1 (stereo unspecified)
no (0)

Recorded test outcome, item "Oc1c(Cl)cc(Cl)c(Cl)c1Cc1c(O)c(Cl)cc(Cl)c1Cl"
yes (1)

Recorded test outcome, item "CC1(C)C2=CCCC(C)(C)[C@]23CC[C@H]1C3"
yes (1)

Recorded test outcome, item CC(=O)C1(C)CC2=C(CCCC2(C)C)CC1C (stereo unspecified)
yes (1)

* * *

- Read-out: TIMP metallopeptidase inhibitor 1 (TIMP1), TIMP1 (gene 7076)
- assay comment: BSK_hDFCGF_TIMP1: BioMAP Diversity Plus: hDFCGF Assay for TIMP metallopeptidase inhibitor 1 (TIMP1) Biomarker Activity (AID 2283062)
- assay setup: primary human foreskin fibroblasts; actives raise or lower the signal
Activity calls are given as the source filed them. The calls were made as follows: active = hit-call score of the fitted dose curve at least 0.9, where 1 is the maximum; inactive = score below 0.9.
Select the matching outcome among active, inactive

Recorded test outcome, item "C=C(C)C(=O)OCCOCCOCCOC(=O)C(=C)C"
inactive

Recorded test outcome, item "c1ccc(Oc2ccccc2)cc1"
inactive

Recorded test outcome, item "CC(=O)c1c(C)c([N+](=O)[O-])c(C(C)(C)C)c([N+](=O)[O-])c1C"
inactive

Recorded test outcome, item "C=C(C)C(=O)OCC(CC)(COC(=O)C(=C)C)COC(=O)C(=C)C"
active

Recorded test outcome, item "IC(I)I"
inactive

Recorded test outcome, item CCC(C)c1cc([N+](=O)[O-])cc([N+](=O)[O-])c1OC(=O)OC(C)C (configuration not stated)
active

Recorded test outcome, item C=CC(C)(O)CCC=C(C)C (configuration not stated)
inactive

Recorded test outcome, item "CN(C)C(=O)Nc1ccc(Oc2ccc(Cl)cc2)cc1"
inactive

Recorded test outcome, item "CN(C)C(=S)SC(=S)N(C)C"
active

Recorded test outcome, item "O=C1c2ccccc2C(=O)c2c(O)ccc(O)c21"
inactive

Recorded test outcome, item "CC1(C)C2=CCCC(C)(C)[C@]23CC[C@H]1C3"
active

Recorded test outcome, item "CCN(CC)C(=O)N(CC)CC"
inactive

Recorded test outcome, item "Oc1c(Cl)cc(Cl)c(Cl)c1Cc1c(O)c(Cl)cc(Cl)c1Cl"
active

Recorded test outcome, item "O=C1OC2(c3ccccc31)c1ccc(O)c(Br)c1Oc1c2ccc(O)c1Br"
inactive

Recorded test outcome, item "O=C(Nc1ccc2c(O)c(N=Nc3ccc(N=Nc4ccc(S(=O)(=O)O)cc4)cc3)c(S(=O)(=O)O)cc2c1)c1ccccc1"
inactive

Recorded test outcome, item "CCCCCCCCCCCCCCCC(=O)OC/C=C(C)/C=C/C=C(C)/C=C/C1=C(C)CCCC1(C)C"
active

Recorded test outcome, item "CS(=O)(=O)c1ccc(C2=C(c3ccccc3)C(=O)OC2)cc1"
inactive

Recorded test outcome, item "Cc1cc(CCC(=O)OCCOCCOCCOC(=O)CCc2cc(C)c(O)c(C(C)(C)C)c2)cc(C(C)(C)C)c1O"
inactive

Recorded test outcome, item "COc1ccc(CCN2CCC(Nc3nc4ccccc4n3Cc3ccc(F)cc3)CC2)cc1"
active

Recorded test outcome, item "CCCCOC(=O)CCCCCCCC(=O)OCCCC"
inactive

Recorded test outcome, item CC(C=O)Cc1ccc(C(C)(C)C)cc1 (configuration not stated)
active

Recorded test outcome, item "CS(=O)(=O)OCCCCOS(C)(=O)=O"
inactive

Recorded test outcome, item "CCCCCC(C=O)=Cc1ccccc1"
inactive

Recorded test outcome, item "CC(=O)Nc1ccc(C(=O)CCl)cc1"
active

Recorded test outcome, item CC(=O)C1(C)CC2=C(CCCC2(C)C)CC1C (configuration not stated)
active

Recorded test outcome, item "CCCCN(CCCC)C(=O)N(CCCC)CCCC"
active

Recorded test outcome, item "C[C@@H]1CCN(C(=O)[C@H](CCCN=C(N)N)NS(=O)(=O)c2cccc3c2NC[C@H](C)C3)[C@@H](C(=O)O)C1"
inactive
